# experiment summary: clinical
# experimental setup: human, in vivo, 50 mg
measured attribute: AUC(0-inf) (ng·h/mL)
Answer in ng·h/mL, number only, no unit symbol.

# input What does the record list as AUC(0-inf) for COC(=O)N[C@H](C(=O)N1CCC[C@H]1c1nc2cc(-c3csc4c(-c5ccc(-c6cnc([C@@H]7CCCN7C(=O)[C@H](NC(=O)OC)c7ccccc7)[nH]6)cc5)csc34)ccc2[nH]1)C(C)C [the Compound] ?
# output 576

###

# experiment summary: clinical
# experimental setup: human, in vivo, t1/2
measured attribute: half-life (min)
Answer in min, number only, no unit symbol.

# input What does the record list as half-life for COC(=O)N[C@H](C(=O)N1CCC[C@H]1c1nc2cc(-c3csc4c(-c5ccc(-c6cnc([C@@H]7CCCN7C(=O)[C@H](NC(=O)OC)c7ccccc7)[nH]6)cc5)csc34)ccc2[nH]1)C(C)C [the Compound] ?
# output 1180

###

# experiment summary: clinical
# experimental setup: human, in vivo, 5 mg
measured attribute: Cmax (ng/mL)
Answer in ng/mL, number only, no unit symbol.

# input What does the record list as Cmax for COC(=O)N[C@H](C(=O)N1CCC[C@H]1c1nc2cc(-c3csc4c(-c5ccc(-c6cnc([C@@H]7CCCN7C(=O)[C@H](NC(=O)OC)c7ccccc7)[nH]6)cc5)csc34)ccc2[nH]1)C(C)C [the Compound] ?
# output 2.2

###

# experiment summary: Phase I/IIa Group A: pharmacokinetics in healthy subjects
# Assay type: in vivo, human
# experimental setup: human, plasma, oral, 100 mg, healthy subjects, 100 mg QD x 7 days, fasted, PK Day 7, mean ± SD
measured attribute: half-life
// return the numeric value with its unit appended

# input What does the record list as half-life for COC(=O)N[C@H](C(=O)N1CCC[C@H]1c1nc2cc(-c3csc4c(-c5ccc(-c6cnc([C@@H]7CCCN7C(=O)[C@H](NC(=O)OC)c7ccccc7)[nH]6)cc5)csc34)ccc2[nH]1)C(C)C ?
# output 21 h

###

# experiment summary: clinical
# experimental setup: human, in vivo, 25 mg
measured attribute: AUC(0-inf) (ng·h/mL)
Answer in ng·h/mL, number only, no unit symbol.

# input What does the record list as AUC(0-inf) for COC(=O)N[C@H](C(=O)N1CCC[C@H]1c1nc2cc(-c3csc4c(-c5ccc(-c6cnc([C@@H]7CCCN7C(=O)[C@H](NC(=O)OC)c7ccccc7)[nH]6)cc5)csc34)ccc2[nH]1)C(C)C [the Compound] ?
# output 216

###

# experiment summary: clinical
# experimental setup: human, in vivo, 100 mg
measured attribute: Tmax (h)
Answer in h, number only, no unit symbol.

# input What does the record list as Tmax for COC(=O)N[C@H](C(=O)N1CCC[C@H]1c1nc2cc(-c3csc4c(-c5ccc(-c6cnc([C@@H]7CCCN7C(=O)[C@H](NC(=O)OC)c7ccccc7)[nH]6)cc5)csc34)ccc2[nH]1)C(C)C ?
# output 4

###

# experiment summary: Phase I/IIa Group A: pharmacokinetics in healthy subjects
# Type: in vivo, human
# experimental setup: human, plasma, oral, 100 mg, healthy subjects, 100 mg QD x 7 days, fasted, PK Day 7, mean ± SD
measured attribute: Cmax (µg/mL)
Answer in µg/mL, number only, no unit symbol.

# input What does the record list as Cmax for COC(=O)N[C@H](C(=O)N1CCC[C@H]1c1nc2cc(-c3csc4c(-c5ccc(-c6cnc([C@@H]7CCCN7C(=O)[C@H](NC(=O)OC)c7ccccc7)[nH]6)cc5)csc34)ccc2[nH]1)C(C)C ?
# output 0.117
